TEST_SYSTEM: Histone deacetylase 1 (Homo sapiens, UniProt Q13547)
Sequence (Q13547 whole entry): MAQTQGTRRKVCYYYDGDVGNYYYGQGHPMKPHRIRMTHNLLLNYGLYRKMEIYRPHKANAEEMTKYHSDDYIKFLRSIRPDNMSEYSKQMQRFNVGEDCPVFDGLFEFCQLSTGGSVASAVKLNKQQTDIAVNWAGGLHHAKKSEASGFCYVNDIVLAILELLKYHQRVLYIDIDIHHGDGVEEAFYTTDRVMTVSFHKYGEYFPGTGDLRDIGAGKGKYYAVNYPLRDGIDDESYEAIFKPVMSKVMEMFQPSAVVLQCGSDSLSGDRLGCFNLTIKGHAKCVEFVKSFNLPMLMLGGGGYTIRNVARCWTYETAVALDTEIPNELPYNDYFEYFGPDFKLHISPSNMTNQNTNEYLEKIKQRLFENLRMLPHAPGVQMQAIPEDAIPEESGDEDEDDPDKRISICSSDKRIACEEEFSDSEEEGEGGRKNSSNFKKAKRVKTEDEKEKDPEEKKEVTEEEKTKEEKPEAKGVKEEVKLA
ASSAY_METHOD_TEXT: Inhibition of human recombinant HDAC1 using Fluor de Lys as substrate by fluorometric assay
PARAMETER_MEASURED: IC50
Your answer should be a number followed by the unit of measure.

Value of measured IC50 for the entry Nc1ccccc1NC(=O)c1ccc(COc2ccc(F)cc2)cc1 : 1270 nM

* * *

Recorded IC50, one value per entry.
Tested on: A549
ASSAY_METHOD_TEXT: Antiproliferative activity against human A549 cells after 72 hrs by CCK-8 reagent based assay
Type: functional, cell-based
CONDITION_INFO: A549, 72 h
Write the value in µM as a bare number.

Example molecules with recorded IC50:
CCCc1ccc(OCc2ccc(C(=O)Nc3ccccc3N)cc2)cc1 = 5.21
Nc1ccccc1NC(=O)/C=C/c1ccc(CN2CCc3ccccc32)cc1 = 13.4
COc1ccc(OCc2ccc(C(=O)Nc3ccccc3N)cc2)cc1 = 5.53

Form field IC50, entry CCc1ccc(OCc2ccc(C(=O)Nc3ccccc3N)cc2)cc1 : 6.42

The molecule CC(=O)Nc1ccc(C(=O)Nc2ccccc2N)cc1 showed IC50 equal to 20.1

Lookup result for Nc1ccccc1NC(=O)c1ccc(COc2ccccc2)cc1 ; measured IC50: 6.76

* * *

# maps each entry to its pIC50
Test system: HepG2
ASSAY_METHOD_TEXT: Antiproliferative activity against human HepG2 cells after 72 hrs by CCK-8 reagent based assay
Assay type: functional, cell-based
CONDITION_INFO: HepG2, 72 h
Units for pIC50: none; it is -log10 of a concentration expressed in mol/L.

Consider the worked cases shown below.
COc1ccc(OCc2ccc(C(=O)Nc3ccccc3N)cc2)cc1 = 5.38
O=C(NO)c1ccc(COc2ccccc2)cc1 = 4.53
CC(=O)Nc1ccc(C(=O)Nc2ccccc2N)cc1 = 4.73
Nc1ccc(F)cc1NC(=O)c1ccc(CNC(=O)/C=C/c2cccnc2)cc1 = 4.64
Nc1ccccc1NC(=O)c1ccc(COc2ccc(F)cc2)cc1 = 5.42
Cc1ccc(OCc2ccc(C(=O)Nc3ccccc3N)cc2)cc1 = 5.18
CCCc1ccc(OCc2ccc(C(=O)Nc3ccccc3N)cc2)cc1 = 5.32

Please find the next compound below.
Short answer on HepG2 for Nc1ccccc1NC(=O)c1ccc(CN2CCc3cc(Br)ccc32)cc1 , pIC50: 4.97

* * *

TEST_SYSTEM: Protein deacetylase HDAC6 (Homo sapiens, UniProt Q9UBN7)
Sequence (Q9UBN7 whole entry): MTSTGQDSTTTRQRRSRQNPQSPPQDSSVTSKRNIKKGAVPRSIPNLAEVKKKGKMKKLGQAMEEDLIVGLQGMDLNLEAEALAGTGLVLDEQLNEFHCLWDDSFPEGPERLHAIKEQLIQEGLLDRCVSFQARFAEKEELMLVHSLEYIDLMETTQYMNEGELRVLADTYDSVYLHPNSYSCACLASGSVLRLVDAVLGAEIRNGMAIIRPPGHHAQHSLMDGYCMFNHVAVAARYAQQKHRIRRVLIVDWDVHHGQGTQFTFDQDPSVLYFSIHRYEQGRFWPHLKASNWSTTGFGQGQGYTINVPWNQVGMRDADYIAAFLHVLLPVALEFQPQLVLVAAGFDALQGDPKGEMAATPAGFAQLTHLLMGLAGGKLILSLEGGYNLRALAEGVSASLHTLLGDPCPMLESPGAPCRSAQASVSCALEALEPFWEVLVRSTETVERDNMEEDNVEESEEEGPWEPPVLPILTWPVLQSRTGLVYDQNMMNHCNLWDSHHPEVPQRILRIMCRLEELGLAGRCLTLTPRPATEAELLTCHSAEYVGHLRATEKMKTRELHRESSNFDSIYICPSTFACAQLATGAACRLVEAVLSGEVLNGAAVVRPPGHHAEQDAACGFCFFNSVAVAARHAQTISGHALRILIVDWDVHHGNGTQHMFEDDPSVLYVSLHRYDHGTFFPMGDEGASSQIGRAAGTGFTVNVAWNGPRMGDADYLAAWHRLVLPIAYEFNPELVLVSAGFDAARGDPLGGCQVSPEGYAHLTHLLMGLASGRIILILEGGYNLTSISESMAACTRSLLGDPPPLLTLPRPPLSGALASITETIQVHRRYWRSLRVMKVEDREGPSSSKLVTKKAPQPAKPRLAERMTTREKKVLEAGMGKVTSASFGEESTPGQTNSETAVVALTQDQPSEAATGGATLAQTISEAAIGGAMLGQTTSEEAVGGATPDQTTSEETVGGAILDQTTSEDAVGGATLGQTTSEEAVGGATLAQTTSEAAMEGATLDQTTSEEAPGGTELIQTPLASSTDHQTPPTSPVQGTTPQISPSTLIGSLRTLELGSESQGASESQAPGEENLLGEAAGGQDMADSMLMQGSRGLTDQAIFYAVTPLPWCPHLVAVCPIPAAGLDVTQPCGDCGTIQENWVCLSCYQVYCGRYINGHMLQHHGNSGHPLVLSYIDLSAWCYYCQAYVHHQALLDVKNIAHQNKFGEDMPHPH
ASSAY_METHOD_TEXT: Inhibition of human recombinant HDAC6 using Fluor de Lys as substrate after 60 mins by fluorometric assay
PARAMETER_MEASURED: IC50

Known value: Protein deacetylase HDAC6 (Homo sapiens, UniProt Q9UBN7) IC50 of the compound Nc1ccccc1NC(=O)c1ccc(COc2ccc(F)cc2)cc1 equals > 40 µM

* * *

Reported IC50 values are given for each entry in this list.
System: A549
ASSAY_METHOD_TEXT: Antiproliferative activity against human A549 cells after 72 hrs by CCK-8 reagent based assay
Assay type: functional, cell-based
CONDITION_INFO: A549, 72 h

Short answer on A549 for CC(C)c1ccc(OCc2ccc(C(=O)Nc3ccccc3N)cc2)cc1 , IC50: 7.46 µM

Value sought: IC50, system A549, item Nc1cc(F)ccc1NC(=O)c1ccc(COc2ccccc2)cc1 . Result: 8.34 µM
